Molecular target: T1, DCC
T1 construct: coated protein in the ELISA; also called DCC-His (R&D Systems)
T1 chain: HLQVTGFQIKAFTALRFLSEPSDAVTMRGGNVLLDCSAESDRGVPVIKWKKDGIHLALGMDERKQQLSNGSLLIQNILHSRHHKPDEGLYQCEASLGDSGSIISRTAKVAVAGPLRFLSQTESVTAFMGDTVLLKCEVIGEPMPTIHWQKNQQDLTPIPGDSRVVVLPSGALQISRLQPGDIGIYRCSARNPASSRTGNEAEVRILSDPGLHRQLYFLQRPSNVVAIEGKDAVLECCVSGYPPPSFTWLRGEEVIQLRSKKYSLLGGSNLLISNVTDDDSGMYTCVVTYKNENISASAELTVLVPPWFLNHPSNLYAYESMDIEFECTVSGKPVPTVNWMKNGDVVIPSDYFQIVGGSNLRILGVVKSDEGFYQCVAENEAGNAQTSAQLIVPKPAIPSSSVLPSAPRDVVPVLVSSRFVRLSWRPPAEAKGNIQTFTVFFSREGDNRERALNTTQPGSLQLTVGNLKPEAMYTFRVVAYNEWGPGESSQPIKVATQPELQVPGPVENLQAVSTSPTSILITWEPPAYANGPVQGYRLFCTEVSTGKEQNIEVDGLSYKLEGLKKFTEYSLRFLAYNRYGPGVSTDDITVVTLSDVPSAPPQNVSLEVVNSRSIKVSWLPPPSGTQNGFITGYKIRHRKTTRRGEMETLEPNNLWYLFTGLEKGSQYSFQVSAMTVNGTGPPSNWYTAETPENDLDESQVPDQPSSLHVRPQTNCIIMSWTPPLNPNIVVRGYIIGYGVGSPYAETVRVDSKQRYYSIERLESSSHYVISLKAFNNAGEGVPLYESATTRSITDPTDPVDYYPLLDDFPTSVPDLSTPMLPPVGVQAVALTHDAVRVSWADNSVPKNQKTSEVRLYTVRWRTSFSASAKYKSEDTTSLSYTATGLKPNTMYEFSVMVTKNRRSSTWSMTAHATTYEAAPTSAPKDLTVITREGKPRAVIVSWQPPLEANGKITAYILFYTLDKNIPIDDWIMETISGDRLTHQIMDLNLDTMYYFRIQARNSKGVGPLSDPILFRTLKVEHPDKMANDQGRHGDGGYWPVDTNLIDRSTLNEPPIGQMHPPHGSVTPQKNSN
Experiment: ELISA on coated DCC-His, 150 ng IgG1; None 0.095
property.name: ELISA Absorbance (405 nm-570 nm)
Enter the number alone.

Known results for binders:
binder | ELISA Absorbance (405 nm-570 nm)
HW-70 chimeric rabbit-human IgG1 LA/LA/PG (antibody, V domains shown, Fc-silenced (L234A/L235A/P329G) IgG1, lambda; Alexa Fluor 647-labeled in single-step flow cytometry; Cluster C-1) VH: QSLEESGGRLVTPGTPLTLTCTVSGFSLSSNAMSWVRQAPGKGLEWIGTIDGYGYTYYASWAKGRFTVSKTSTTVDLKITSPTTEDTATYFCAREIYLGSNFWGPGTLVTISS VL: SFVLTQPASVQVNLGQTVSLTCTADTLSRRYASWYQQKPGQAPVLLIYRDTSRPSGVPDRFSGSSSGNTATLTISGAQAGDEADYYCATADGSGSSYQFVFGGGTQLTVTG | 0.086
HW-97 chimeric rabbit-human IgG1 LA/LA/PG (antibody, V domains shown, Fc-silenced (L234A/L235A/P329G) IgG1, lambda; Alexa Fluor 647-labeled in single-step flow cytometry; Prototype of cluster C-97) VH: QKQLVESGGRLVTPGTPLTLTCTVTGIDLSSHGMSWVRQAPGKGLEWIGVIYPSGSTWYASWARGRFTISKTSTTVDLKMTSLTTEDTATHFCARGDVGGADNNIWGPGTLVTVSS VL: SFVLTQPASVQVDLGQTVSLTCTAETLSRSYASWYQQKPGQAPVLLIYRDTSRPSGVPDRFSGSSSGNTATLTISGAQAGDEADYYCATSDGSGSSYQYVFGGGTQLTVTG | 0.065

Now examine the next entry.
What measured ELISA Absorbance (405 nm-570 nm) goes with TH9-0022 (antibody, human IgG1, kappa, L234A L235A, V domains shown, also called TH9-022; negative control) VH: QSLEESGGRLVTPGTPLTLTCTVSGFSLSSYAMNWVRQAPGKGLEWIGIINSYGSTYYASWAKGRFTISKTSTTVDLKITSPTTEDTATYFCARVTYDSYGYGYAPYGMDLWGPGTLVTVSS VL: LVMTQTPSSTSNAVGGTVTIKCQASQSIGNVLAWYQQKPGQPPKLLIYAASTLASGVPSRVGGSRSGTEYTLTISGVQREDAATYYCLGSDSDSDIAFGGGTELEILR ?
0.079
